test_target: GABA-A receptor; anion channel
assay_protocol: In vitro inhibition of [35S]TBPS binding to gamma-aminobutyric-acid A receptor in rat brain cortical membranes in the presence of 5 uM GABA.
Type: cell membranes, Membrane
pIC50: −log10 of the molar value.
measurement_type: pIC50

molecule_smiles: CC(=O)[C@H]1CC[C@H]2[C@@H]3CC[C@@H]4C[C@@](O)(C#Cc5ccc([N+](=O)[O-])cc5)CC[C@]4(C)[C@H]3CC[C@]12C
assay_value: 7.38
--
molecule_smiles: CCOC(=O)c1ccc(C#C[C@@]2(O)CC[C@@]3(C)[C@H](CC[C@@H]4[C@@H]3CC[C@]3(C)[C@@H](C(C)=O)CC[C@@H]43)C2)cc1
assay_value: 7.92
--
molecule_smiles: CC(=O)[C@H]1CC[C@H]2[C@@H]3CC[C@@H]4C[C@@](O)(C#Cc5ccc(-c6ccccc6)cc5)CC[C@]4(C)[C@H]3CC[C@]12C
assay_value: 7.27
--
molecule_smiles: CC(=O)[C@H]1CC[C@H]2[C@@H]3CC[C@@H]4C[C@@](O)(c5ccccc5)CC[C@]4(C)[C@H]3CC[C@]12C
assay_value: 6.42
--
molecule_smiles: CC(=O)[C@H]1CC[C@H]2[C@@H]3CC[C@@H]4C[C@@](O)(C#Cc5ccc(C(=O)c6ccccc6)cc5)CC[C@]4(C)[C@H]3CC[C@]12C
assay_value: 7.26
--
molecule_smiles: CC(=O)[C@H]1CC[C@H]2[C@@H]3CC[C@@H]4C[C@@](O)(C#Cc5ccc(C(F)(F)F)cc5)CC[C@]4(C)[C@H]3CC[C@]12C
assay_value: 7.25
--
molecule_smiles: CC(=O)[C@H]1CC[C@H]2[C@@H]3CC[C@@H]4C[C@@](O)(C#Cc5ccc(C)cc5)CC[C@]4(C)[C@H]3CC[C@]12C
assay_value: 7.08
--
molecule_smiles: CC(=O)[C@H]1CC[C@H]2[C@@H]3CC[C@@H]4C[C@@](O)(Cc5ccccc5)CC[C@]4(C)[C@H]3CC[C@]12C
assay_value: 6.96
--
molecule_smiles: CC(=O)[C@H]1CC[C@H]2[C@@H]3CC[C@@H]4C[C@@](O)(C#Cc5ccccc5)CC[C@]4(C)[C@H]3CC[C@]12C
assay_value: 7.00
--
molecule_smiles: CC(=O)[C@H]1CC[C@H]2[C@@H]3CC[C@@H]4C[C@@](O)(C#Cc5ccc(C(N)=O)cc5)CC[C@]4(C)[C@H]3CC[C@]12C
assay_value: 5.74
--
molecule_smiles: CC(=O)[C@H]1CC[C@H]2[C@@H]3CC[C@@H]4C[C@@](O)(C#Cc5ccc(O)cc5)CC[C@]4(C)[C@H]3CC[C@]12C
assay_value: 5.64
--
molecule_smiles: COc1ccccc1C#C[C@@]1(O)CC[C@@]2(C)[C@H](CC[C@@H]3[C@@H]2CC[C@]2(C)[C@@H](C(C)=O)CC[C@@H]32)C1
assay_value: 6.77
--
molecule_smiles: CCOC(=O)c1ccc(C#C[C@@]2(O)CC[C@H]3[C@H](CC[C@@H]4[C@@H]3CC[C@]3(C)[C@@H](C(C)=O)CC[C@@H]43)C2)cc1
assay_value: 7.59
--
molecule_smiles: C#C[C@@]1(O)CC[C@@]2(C)[C@H](CC[C@@H]3[C@@H]2CC[C@]2(C)[C@@H](C(C)=O)CC[C@@H]32)C1
assay_value: 7.41
--
molecule_smiles: CC(=O)[C@H]1CC[C@H]2[C@@H]3CC[C@@H]4C[C@@](O)(C#Cc5cccc(O)c5)CC[C@]4(C)[C@H]3CC[C@]12C
assay_value: 6.38
--
molecule_smiles: COc1ccc(C#C[C@@]2(O)CC[C@@]3(C)[C@H](CC[C@@H]4[C@@H]3CC[C@]3(C)[C@@H](C(C)=O)CC[C@@H]43)C2)cc1
assay_value: 7.38
--
molecule_smiles: CC(=O)[C@H]1CC[C@H]2[C@@H]3CC[C@@H]4C[C@@](O)(C#Cc5ccc(C#N)cc5)CC[C@]4(C)[C@H]3CC[C@]12C
assay_value: 7.22
--
molecule_smiles: COc1ccc(C#C[C@@]2(O)CC[C@@]3(C)[C@H](CC[C@@H]4[C@@H]3CC[C@]3(C)[C@@H](C(C)=O)CC[C@@H]43)C2)cc1OC
assay_value: 6.54
--
molecule_smiles: CC(=O)[C@H]1CC[C@H]2[C@@H]3CC[C@@H]4C[C@@](O)(C#Cc5ccc(Cl)cc5)CC[C@]4(C)[C@H]3CC[C@]12C
assay_value: 7.15
--
molecule_smiles: CCN(CC)C(=O)c1ccc(C#C[C@@]2(O)CC[C@@]3(C)[C@H](CC[C@@H]4[C@@H]3CC[C@]3(C)[C@@H](C(C)=O)CC[C@@H]43)C2)cc1
assay_value: 7.03
--
molecule_smiles: CC(=O)[C@H]1CC[C@H]2[C@@H]3CC[C@@H]4C[C@@](O)(C#Cc5ccc(N(C)C)cc5)CC[C@]4(C)[C@H]3CC[C@]12C
assay_value: 7.40
--
molecule_smiles: CC(=O)[C@H]1CC[C@H]2[C@@H]3CC[C@@H]4C[C@@](O)(CCc5ccccc5)CC[C@]4(C)[C@H]3CC[C@]12C
assay_value: 6.82
--
molecule_smiles: CC(=O)[C@H]1CC[C@H]2[C@@H]3CC[C@@H]4C[C@](C)(O)CC[C@]4(C)[C@H]3CC[C@]12C
assay_value: 7.43
